- measured target: human RAR-related Orphan Receptor gamma (RORg), RORC (gene 6097) (UniProt P51449)
- Sequence (P51449 whole entry, looked up): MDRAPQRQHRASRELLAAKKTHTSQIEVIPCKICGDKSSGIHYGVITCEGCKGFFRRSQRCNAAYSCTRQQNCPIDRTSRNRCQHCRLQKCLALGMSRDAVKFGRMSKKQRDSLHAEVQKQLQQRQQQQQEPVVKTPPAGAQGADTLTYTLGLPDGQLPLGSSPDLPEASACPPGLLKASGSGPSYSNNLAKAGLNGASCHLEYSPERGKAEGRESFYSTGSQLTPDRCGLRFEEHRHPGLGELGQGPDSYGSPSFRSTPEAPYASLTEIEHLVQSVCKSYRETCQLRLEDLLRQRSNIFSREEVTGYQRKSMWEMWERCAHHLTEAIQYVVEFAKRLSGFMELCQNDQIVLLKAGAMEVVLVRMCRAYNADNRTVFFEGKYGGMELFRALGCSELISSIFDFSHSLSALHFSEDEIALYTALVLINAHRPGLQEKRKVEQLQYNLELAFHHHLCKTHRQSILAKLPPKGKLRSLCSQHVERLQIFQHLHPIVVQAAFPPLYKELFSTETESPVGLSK
- test description: ATG_RORg_TRANS: Attagene TRANS-FACTORIAL HepG2 Assay for human RAR-related Orphan Receptor gamma (RORg) (AID 2283011)
Results filed as inconclusive are left out. Calls of active or inactive are those of the source. Rule for the calls: active = hit-call score of the fitted dose curve at least 0.9, where 1 is the maximum; inconclusive = response in the unintended direction; inactive = score below 0.9.
Classes used: label 1 (active), label 0 (inactive)

{"columns": ["molecule", "measured target", "class label"],
 "data": [
  ["CCCCOCC", "human RAR-related Orphan Receptor gamma (RORg), RORC (gene 6097) (UniProt P51449)", "label 0"],
  ["Oc1c(Cl)cc(Cl)c(Cl)c1Cc1c(O)c(Cl)cc(Cl)c1Cl", "human RAR-related Orphan Receptor gamma (RORg), RORC (gene 6097) (UniProt P51449)", "label 0"],
  ["CC(=O)c1ccccn1", "human RAR-related Orphan Receptor gamma (RORg), RORC (gene 6097) (UniProt P51449)", "label 0"],
  ["CC1(C)O[C@@H]2C[C@H]3[C@@H]4CCC5=CC(=O)C=C[C@]5(C)[C@@]4(F)[C@@H](O)C[C@]3(C)[C@]2(C(=O)CO)O1", "human RAR-related Orphan Receptor gamma (RORg), RORC (gene 6097) (UniProt P51449)", "label 0"],
  ["C=C(C)C(=O)OCCOC1CC2CC1C1C=CCC21 (stereo not drawn)", "human RAR-related Orphan Receptor gamma (RORg), RORC (gene 6097) (UniProt P51449)", "label 0"],
  ["CS(C)=O", "human RAR-related Orphan Receptor gamma (RORg), RORC (gene 6097) (UniProt P51449)", "label 0"],
  ["CS(=O)(=O)c1ccc(Cl)cc1", "human RAR-related Orphan Receptor gamma (RORg), RORC (gene 6097) (UniProt P51449)", "label 0"],
  ["O=C(c1ccccc1)C(O)c1ccccc1 (stereo not drawn)", "human RAR-related Orphan Receptor gamma (RORg), RORC (gene 6097) (UniProt P51449)", "label 0"],
  ["O=C1OC2(c3ccccc31)c1ccc(O)c(Br)c1Oc1c2ccc(O)c1Br", "human RAR-related Orphan Receptor gamma (RORg), RORC (gene 6097) (UniProt P51449)", "label 0"],
  ["Cc1ncc([N+](=O)[O-])n1CCO", "human RAR-related Orphan Receptor gamma (RORg), RORC (gene 6097) (UniProt P51449)", "label 0"],
  ["C=CC(=O)OCCC#N", "human RAR-related Orphan Receptor gamma (RORg), RORC (gene 6097) (UniProt P51449)", "label 0"],
  ["C=Cc1ccc(C(C)(C)C)cc1", "human RAR-related Orphan Receptor gamma (RORg), RORC (gene 6097) (UniProt P51449)", "label 0"],
  ["CC(=O)OCCCc1ccccc1", "human RAR-related Orphan Receptor gamma (RORg), RORC (gene 6097) (UniProt P51449)", "label 0"],
  ["Nc1ccn([C@H]2CS[C@@H](CO)O2)c(=O)n1", "human RAR-related Orphan Receptor gamma (RORg), RORC (gene 6097) (UniProt P51449)", "label 0"],
  ["OCCc1ccccc1", "human RAR-related Orphan Receptor gamma (RORg), RORC (gene 6097) (UniProt P51449)", "label 0"],
  ["O=CN1CCOCC1", "human RAR-related Orphan Receptor gamma (RORg), RORC (gene 6097) (UniProt P51449)", "label 0"],
  ["O=C(CS)OCCOC(=O)CS", "human RAR-related Orphan Receptor gamma (RORg), RORC (gene 6097) (UniProt P51449)", "label 1"],
  ["COc1ccccc1[N+](=O)[O-]", "human RAR-related Orphan Receptor gamma (RORg), RORC (gene 6097) (UniProt P51449)", "label 0"],
  ["O=C1NC2NC(=O)NC2N1 (stereo not drawn)", "human RAR-related Orphan Receptor gamma (RORg), RORC (gene 6097) (UniProt P51449)", "label 0"],
  ["c1ccc(Oc2ccccc2)cc1", "human RAR-related Orphan Receptor gamma (RORg), RORC (gene 6097) (UniProt P51449)", "label 0"],
  ["CC(=O)CC(=O)Nc1ccc(C)cc1C", "human RAR-related Orphan Receptor gamma (RORg), RORC (gene 6097) (UniProt P51449)", "label 0"],
  ["CCCC(=O)OC(C)(C)Cc1ccccc1", "human RAR-related Orphan Receptor gamma (RORg), RORC (gene 6097) (UniProt P51449)", "label 0"],
  ["ON=C1CCCCC1", "human RAR-related Orphan Receptor gamma (RORg), RORC (gene 6097) (UniProt P51449)", "label 0"]
]}

---

- test description: ATG_GLI_CIS: Attagene CIS-FACTORIAL HepG2 Assay for human Zinc Finger Protein GLI1 (AID 2282945)
- condition label: HepG2, Attagene cis-factorial reporter mRNA, GLI element; actives raise or lower the signal
Active and inactive are the calls of the source. The calls were made as follows: active = hit-call score of the fitted dose curve at least 0.9, where 1 is the maximum; inactive = score below 0.9.
Classes used: active, inactive

{"columns": ["compound", "class label"],
 "data": [
  ["C[N+](C)(C)CCCCCC[N+](C)(C)C", "inactive"],
  ["COC(C)(C)CCCC(C)CC=O (centres undefined)", "inactive"],
  ["C/C=C(\\C)C(=O)OCCc1ccccc1", "inactive"],
  ["COc1cc(Cl)c(OC)cc1N", "inactive"],
  ["CC(CN=Cc1ccccc1O)N=Cc1ccccc1O (centres undefined)", "inactive"],
  ["CC1(C)C(=O)N(Cl)C(=O)N1Br", "inactive"],
  ["c1ccc(CN(Cc2ccccc2)Cc2ccccc2)cc1", "active"],
  ["CC(C)OCCO", "inactive"],
  ["O=[N+]([O-])c1cccc(Cl)c1", "inactive"],
  ["O=C(O)CCCCCCCCC(=O)O", "inactive"],
  ["CSCCC=O", "inactive"],
  ["CCCCC(CC)(CO)CO", "inactive"],
  ["O=c1[nH]c(=O)c2cn[nH]c2[nH]1", "inactive"],
  ["NC(=S)NNC(N)=S", "inactive"],
  ["COS(=O)(=O)O", "inactive"],
  ["CCCC[O][Al]([O]CCCC)[O]CCCC", "inactive"],
  ["COC(=O)Nc1ccc(Cl)c(Cl)c1", "inactive"],
  ["CCCCCCOC(=O)CCC", "inactive"],
  ["O=C(Nc1ccc2c(O)c(N=Nc3ccc(N=Nc4ccc(S(=O)(=O)O)cc4)cc3)c(S(=O)(=O)O)cc2c1)c1ccccc1", "inactive"],
  ["CCCSc1ccc2nc(NC(=O)OC)[nH]c2c1", "inactive"],
  ["COc1cc([C@@H]2c3cc4c(cc3[C@@H](O[C@@H]3O[C@@H]5CO[C@@H](C)O[C@H]5[C@H](O)[C@H]3O)[C@H]3COC(=O)[C@H]23)OCO4)cc(OC)c1O", "inactive"],
  ["CC=Cc1ccc(OC)c(OC)c1", "inactive"],
  ["c1ccc(CCc2ccccc2)cc1", "inactive"],
  ["C=CC(=O)OCCC#N", "active"],
  ["CC(C)=CCCC(C)CCOC=O (centres undefined)", "inactive"],
  ["Cc1ccc(C)o1", "inactive"],
  ["CC1(C)CCC[C@]2(C)[C@H]3CCO[C@]3(C)CC[C@@H]12", "inactive"],
  ["CC(C)(CO)[C@@H](O)C(=O)NCCC(=O)O", "inactive"],
  ["CCc1ccc(O)cc1", "inactive"],
  ["CCC(C)c1cc([N+](=O)[O-])cc([N+](=O)[O-])c1OC(=O)OC(C)C (centres undefined)", "active"],
  ["Oc1ccc2cc(SSc3ccc4cc(O)ccc4c3)ccc2c1", "inactive"],
  ["O=C(O)c1cc(C(=O)O)cc([N+](=O)[O-])c1", "inactive"],
  ["Cc1ccc(OC(=O)c2ccccc2O)cc1", "inactive"],
  ["C=Cc1ccncc1", "inactive"],
  ["C=COCCOCCOC=C", "inactive"],
  ["C[C@@H]1CCN(C(=O)[C@H](CCCN=C(N)N)NS(=O)(=O)c2cccc3c2NC[C@H](C)C3)[C@@H](C(=O)O)C1", "inactive"],
  ["CC(C)c1ccccc1O", "inactive"],
  ["C=C(C#N)C(=O)OCC", "inactive"],
  ["CC(C)CCOC(=O)c1ccccc1", "inactive"],
  ["[O-]n1ccccc1=S.[O-]n1ccccc1=S.[Zn+2]", "inactive"],
  ["Cc1cccc(Nc2ccccc2)c1", "inactive"],
  ["CC1CC(O)CC(C)(C)C1 (centres undefined)", "inactive"],
  ["CCCCCCCCCC(C)C=O (centres undefined)", "inactive"],
  ["Nc1ccc(Cl)c([N+](=O)[O-])c1", "inactive"],
  ["CCCC(C)=O", "inactive"],
  ["Nc1ccc(N)c2c1C(=O)c1ccccc1C2=O", "inactive"],
  ["CCCCC(CC)COC(C)=O (centres undefined)", "inactive"],
  ["C=C(C)C(=O)OCCOC1CC2CC1C1C=CCC21 (centres undefined)", "inactive"],
  ["O=C(CS)OCCOC(=O)CS", "inactive"],
  ["c1ccc(Oc2ccccc2)cc1", "inactive"],
  ["CC(=O)c1ccccn1", "inactive"],
  ["CCCN(CCC)S(=O)(=O)c1ccc(C(=O)O)cc1", "inactive"],
  ["CCC1CCCCC1", "inactive"],
  ["Cc1ncc([N+](=O)[O-])n1CCO", "inactive"],
  ["CCC(C)S (centres undefined)", "inactive"],
  ["CCC(Cl)C(Cl)C(Cl)CC(Cl)C(Cl)C(C)Cl (centres undefined)", "inactive"],
  ["OCc1cccc(Oc2ccccc2)c1", "inactive"],
  ["CC(=O)CC(=O)Nc1ccc(C)cc1C", "inactive"],
  ["CC(C)(C)C1=CC(=O)C(C(C)(C)C)=CC1=O", "active"]
]}

These data points were gathered from PubChem BioAssay (EPA / NIEHS).
